Source of measurements: ChEMBL document CHEMBL5608113

System: Colon cancer organoid
Test: Targeting of F14 CAF-induced therapy resistance in O23 CRC organoid-stroma co-culture. Cell viability is reported with SN-38.
Type: functional, Homo sapiens
Settings: Homo sapiens, Concentration 10 uM; read-out: Cell Viability
outcome-measure: viability at 10 µM

The examples below pair each entry with its known result.
> print(dat)
                                   molecule     outcome.measure  observed
1         c1ccc([C@@H]2C[C@H]2NC2CCNCC2)cc1  viability at 10 µM     68.3%
2  C[C@@H]1CC(=O)Nc2cccc(-c3ccc4c(c3)c(-c3cnn(C)c3)nn4C)c2N1  viability at 10 µM     70.4%

Task: Looking for the measured viability at 10 µM of CN(C)C(=O)Cn1cc(-c2nc(C3(c4ccc(-c5cnc(N)nc5)cc4)CC3)no2)cn1 [BI 0153] , can you help?
Result: 98.3%

Task: Fill in the blank: the reported viability at 10 µM of C=CC(=O)Nc1ccc2[nH]c(=O)n(C3CCN(Cc4ccc(-c5ccc6c(c5)NC(=O)CO6)cc4)CC3)c2c1 [RL2578] is ____.
Result: 65.6%

Task: Requested field: viability at 10 µM. Item: CCN(C(=O)CO)[C@H]1CN(/C(=N\C#N)Nc2cccc(OC(F)F)c2)N=C1c1ccc(Cl)c(Cl)c1
Result: 115%

Task: If you can, please state the reported viability at 10 µM value of Cc1cc2c(cc1N1C(=O)c3cccc4c(CCCO)ccc(c34)C1=O)n(C)c(=O)n2C .
Result: 81.8%

Task: If you can, please state the reported viability at 10 µM value of O=C1NC(c2ccccn2)Sc2ccccc21 (centres undefined) [BTZO-4] .
Result: 100%

Task: // returns reported viability at 10 µM for input Cc1ccc(NC(=O)Nc2cc(C(F)(F)F)ccc2F)cc1Nc1ccc2c(c1)NC(=O)/C2=C\c1ccc[nH]1
Result: 74.2%

Task: Recorded viability at 10 µM of Cn1nc(C(=O)NCc2ccc(C(=O)O)cc2)cc1-c1ccc2[nH]ccc2c1 [BI 4395] , please.
Result: 77.4%

====

Quick reference for viability at 10 µM among some compounds
Tested on: Colon cancer organoid
Assay: Targeting of F14 CAF-induced therapy resistance in O23 CRC organoid-stroma co-culture. Cell viability is reported without Gefitinib.
Assay type: functional, Homo sapiens
Settings: Homo sapiens, Concentration 10 uM; read-out: Cell Viability
Reply numerically in %, unit not repeated.

> print(dat)
                                   compound     outcome.measure  unit.of.measure  observed
1  O=C1CCc2cc(Nc3cc(OC4CCOCC4)c([N+](=O)[O-])cc3Cl)ccc2N1  viability at 10 µM                %       117
2  N#CC1(c2ccccn2)CCN(Cc2cc(C(=O)O)c(=O)n3ccccc23)CC1  viability at 10 µM                %       118
3  Cc1ccc(NC(=O)Nc2cc(C(F)(F)F)ccc2F)cc1Nc1ccc2c(c1)NC(=O)/C2=C\c1ccc[nH]1  viability at 10 µM                %       117
4  CN(C)[C@H]1CN(C2CCc3cccc(F)c32)C[C@@H]1c1ccc(N2CCN(S(C)(=O)=O)CC2)cc1 (some centres undefined)  viability at 10 µM                %      81.8
5  O=C(O)[C@@H]1[C@@H](Cn2nnc3ccccc3c2=O)CC[C@H]1C(=O)c1ccc(OCCC2CCOCC2)cc1  viability at 10 µM                %       146

Task: Recorded viability at 10 µM for COc1ccc(CCc2nc3cc(-c4c(C)noc4C)ccc3n2C[C@H](C)N2CCOCC2)cc1Cl , please?
Result: 91.4

Task: Data request, read-out viability at 10 µM, for C[C@@H]1CC(=O)Nc2cccc(-c3ccc4c(c3)c(-c3cnn(C)c3)nn4C)c2N1
Result: 115

Task: Fill in the blank: the reported viability at 10 µM of COCc1nc2cnc3cc(-c4c(C)noc4C)c(OC[C@H]4CCNC4)cc3c2n1[C@H](C)c1ccccc1 is ____.
Result: 95.6

Task: # lookup: viability at 10 µM of COc1cc2c(cc1NS(=O)(=O)c1ccc(Br)cc1C)n(C)c(=O)n2C
Result: 169

Task: Given c1ccc(C2CCN(c3cnc4c(N5CCOCC5)nccn34)CC2)cc1 , state its recorded viability at 10 µM.
Result: 207

Task: Dear colleague, I am looking for the recorded viability at 10 µM of the following compound: O=C(Nc1cccnn1)N1CCC(=Cc2cccc(Oc3ccc(C(F)(F)F)cn3)c2)CC1
Result: 114

Task: Given CC1(C)C(N)=Nc2cc(OCCCN3Cc4ccc(OCCc5cn(CC(=O)N6CCC(CCN7CCCC7)CC6)nn5)cc4C3)c(OCC3CC3)cc21 , state its recorded viability at 10 µM.
Result: 11.8

====

Tested on: Colon cancer organoid
Test: Targeting of F14 CAF-induced therapy resistance in O23 CRC organoid-stroma co-culture. Cell viability is reported with Gefitinib.
Format: functional, Homo sapiens
Details: Homo sapiens, Concentration 10 uM; read-out: Cell Viability
In plain terms, low viability at 10 µM, meaning strictly below 60%, gives yes (1), and everything else gives no (0).

Consider the following illustrative entries.
> print(dat)
                                   molecule    group
1  N#CC1(c2ccccn2)CCN(Cc2cc(C(=O)O)c(=O)n3ccccc23)CC1   no (0)
2  Cc1cc(=O)n(C)c2cc(N3C(=O)CC[C@H](NS(=O)(=O)CC(C)C)[C@H]3c3ccc(Cl)cc3)ccc12   no (0)
3  Cc1ccccc1Oc1cc(-n2c(=O)cc(C(F)(F)F)[nH]c2=O)c2ccccc2c1Cl  yes (1)
4  COc1cc(-c2cn(C)c(=O)c3cnccc23)c(OC)cc1CN(C)C  yes (1)
5  C[C@H](c1ccnc(Nc2nc3ccc(-c4cc(N(C)C)ncn4)cc3[nH]2)c1)N1CCN(C(=O)CC(F)(F)F)CC1   no (0)
6  Cc1cc(C)cc([C@H]2c3cc(C)ccc3NC(=O)CN2C(=O)c2ccc(Br)s2)c1   no (0)
7  Cn1c(C2(NC(=O)c3ccc4c(C5CCCC5)c(-c5ncc(Br)cn5)n(C)c4c3)CCC2)nc2ccc(/C=C/C(=O)O)cc21   no (0)
8  COc1cc(Nc2ncc3c(n2)-c2ccc(Cl)cc2C(c2c(F)cccc2OC)=NC3)ccc1C(=O)O  yes (1)

Task: Is viability at 10 µM of CCCS(=O)(=O)c1nc(NC2CC2)cc(-c2ccc3c(ccn3C3CC(C)(C)NC(C)(C)C3)c2)n1 strictly below 60%?
Result: no (0)

Task: Strictly below 60%: is that where viability at 10 µM of O=C(NCc1ccccc1)c1ccc(S(=O)(=O)NCc2ccccc2)cc1 sits?
Result: yes (1)

====

Reported viability at 1 µM values for a set of molecules
System: Colon cancer organoid
Test: Targeting of F14 CAF-induced therapy resistance in O23 CRC organoid-stroma co-culture. Cell viability is reported with Gefitinib.
Format: functional, Homo sapiens
Details: Homo sapiens, Concentration 1 uM; read-out: Cell Viability
Give the quantity in %, number only.

In the examples that follow, each entry is paired with its recorded viability at 1 µM.
> print(dat)
                                    molecule  observed
 1  CCCOc1ccc([C@H]2[C@H](C(=O)O)[C@@H](c3ccc4c(c3)OCO4)CN2CC(=O)Nc2c(CC)cccc2CC)cc1      48.1
 2  O=C(NCc1ncc(C(F)(F)F)cc1Cl)c1ccc2c(c1)C1(CCS(=O)(=O)CC1)[C@H](C1CC1)N2S(=O)(=O)c1ccc(F)cc1      74.1
 3  N#Cc1ccc(Nc2ccc3[nH]c(=O)[nH]c3c2)c(Cl)c1 [TP-021n]      47.2
 4  C[C@@H]1CN(c2cc(-c3n[nH]c4ccc(OC5(C)CC5)cc34)ncn2)C[C@H](C)O1        41
 5  NC1(c2ccc(-c3nc4c(O)ccnn4c3-c3ccccc3)cc2)CCC1      69.1
 6  CN(c1ccnc(CNc2nc(Nc3ccc4c(c3)CC(=O)N4)ncc2C(F)(F)F)n1)S(C)(=O)=O      34.6
 7  CN1C(=O)[C@@H](N2CCc3c(nn(Cc4ccccc4)c3Br)C2=O)COc2ccccc21      83.4
 8  CCCCN(CCCC)C(=O)CN1C[C@H](c2cc(OC)c3c(c2)OCO3)[C@@H](C(=O)O)[C@@H]1CC(C)(C)CCC        50
 9  NC(=O)c1ccc2nc(-c3ccc(C4(N)CCC4)cc3)c(-c3ccccc3)n2n1        38
10  Nc1cnc(N2CCc3cc(S(=O)(=O)Nc4c(F)cc(Cl)cc4F)cc(N4CCCC4=O)c32)nc1 [TP-020n]      45.8

Task: Using the record for Cc1cc(Nc2nccc(C)n2)cc(-c2cnc([C@@]3(O)CC[C@H](C(=O)O)C(C)(C)C3)s2)c1 , report its viability at 1 µM.
Result: 63.4

Task: Param item = CCS(=O)(=O)c1cc2cc(C[C@@](O)(CC(C)(C)c3ccc(F)cc3C(N)=O)C(F)(F)F)[nH]c2cn1 ; retrieve measured viability at 1 µM.
Result: 46.6
